Test system: Antibody to Immunogen VI
Assay type: binding, sheep
CONDITION: Cross-reactants at 100 ng/ml; 1000ng/ml; single level of cross reactants
# note: boundary value 80% maps to 0; %B/B0 below it maps to 1

CCCCn1cc(C(=O)c2c(C)ccc3ccccc23)c2ccccc21 [JWH 073 2-methylnaphthyl analog] ... 0
CC(O)CCCn1cc(C(=O)c2cccc3ccccc23)c2ccccc21 (racemic) ... 1
CCCCn1c(O)c(C(=O)c2cccc3ccccc23)c2ccccc21 ... 0
CCCCCn1cc(C(=O)c2ccc(CCC)c3ccccc23)c2ccccc21 [JWH-182] ... 0
CCCCCn1cc(C(=O)c2cccc3ccccc23)c2c(O)cccc21 ... 0

###

Tested on: Antibody to Immunogen VI
Assay type: binding, sheep
CONDITION: Cross-reactants at 100 ng/ml; 1000ng/ml; single level of cross reactants
Binned %B/B0; ranges: LOW = under 80%, MID = from 80% up to 90%, HIGH = 90% and over

CC(C)CCn1cc(C(=O)c2cccc3ccccc23)c2ccccc21 [JWH 018 N-(3-methylbutyl) isomer (JWH-073 3-methylbutyl homologue)] ... LOW
O=C(c1cccc2ccccc12)c1cn(CCCCO)c2ccccc12 [JWH-073 N-(4-hydroxybutyl) metabolite] ... LOW
O=C(O)c1c[nH]c2ccccc12 [Indole-3-carboxylic Acid] ... HIGH
COc1ccccc1CC(=O)c1cn(CCCCCC(=O)O)c2ccccc12 [JWH 250 N-(5-carboxypentyl) metabo lite] ... MID
CCCCCn1cc(C(=O)Cc2ccccc2Cl)c2ccccc21 [JWH-203] ... MID
CCCCn1cc(C(=O)c2cccc3ccccc23)c2ccccc21 [JWH-073] ... LOW
CCCCn1cc(C(=O)c2cccc3ccccc23)c2ccc(O)cc21 ... MID
CCCCCn1cc(C(=O)c2ccc(Cl)c3ccccc23)c2ccccc21 [JWH-398] ... LOW
CN1CCCCC1Cn1cc(C(=O)c2cc([N+](=O)[O-])ccc2I)c2ccccc21 (stereo not drawn) [AM-1241] ... HIGH
O=C(c1cccc2ccccc12)c1cn(CCN2CCOCC2)c2ccccc12 [WIN 55,225 (other name JWH-200)] ... LOW
COc1ccc(C(=O)c2c(C)n(CCN3CCOCC3)c3cc(I)ccc23)cc1 [AM-630 (other name 6-Iodopravadoline), 6-Iodopravadoline] ... LOW
O=C(O)Cc1c[nH]c2ccc(O)cc12 [5-hydroxyindole-3-acetic acid (5-HIAA), 5-hydroxyindole-3-acetic acid] ... HIGH
CCCCCCC(C)(C)C1=CC(=O)C(C2CCCC(O)C2)=CC1=O (stereo not drawn) [CP-47,497-para-quinone analogue] ... HIGH
CC(F)CCCn1cc(C(=O)c2cccc3ccccc23)c2ccccc21 (single isomer, unassigned) [AM-2201 N-(4-fluoropentyl) isomer] ... LOW
O=C(c1cccc2ccccc12)c1cn(CCN2CCOCC2)c2ccc(O)cc12 [JWH-200 5-hydroxyindole metabolite] ... HIGH
O=C(c1ccc(Cl)c2ccccc12)c1cn(CCCCCO)c2ccccc12 [JWH-398 N-(5-hydroxypentyl) metabo lite] ... LOW

###

Test system: Antibody to Immunogen VI
Format: binding, sheep
CONDITION: Cross-reactants at 100 ng/ml; 1000ng/ml; single level of cross reactants
Where a name gives a salt, the structure may show the parent alone.
MEASURED PARAMETER: %B/B0 (%)

COc1ccccc1CC(=O)c1cn(CCC2CCCCC2)c2ccccc12 [RCS-8 (SR-18)] ... 85.46
COc1ccccc1CC(=O)c1cn(CCCCCO)c2ccccc12 [JWH 250 N-(5-hydroxypentyl) metabo lite] ... 78.58
CCC(C)Cn1cc(C(=O)c2cccc3ccccc23)c2ccccc21 (single isomer, unassigned) [JWH-018 N-(2-methylbutyl) isomer (JWH-073 2-methylbutyl homologue)] ... 80.10
CCCCCn1cc(C(=O)c2cccc3ccc(C)cc23)c2ccccc21 [JWH 122 7-methylnaphthyl isomer] ... 86.92
O=C(c1cccc2ccccc12)c1cn(CCN2CCOCC2)c2cc(O)ccc12 [JWH-200 6-hydroxyindole metabolite] ... 88.68
COc1ccc(C(=O)c2cn(CCCCCO)c3ccccc23)cc1 [RCS-4 N-(5-hydroxypentyl) metabolite] ... 3.76
CCCCCCC(C)(C)c1cc(O)c2c(c1)OC(C)(C)[C@H]1CC=C(CO)C[C@H]21 [HU-211 (Dexanabinol), Dexanabinol] ... 98.97
O=C(O)CCCn1cc(C(=O)c2cccc3ccccc23)c2ccccc21 [JWH-073 N-butanoic acid metabolite] ... 76.27
NCCc1c[nH]c2ccc(O)cc12 [Serotonin HCl] ... 98.60
CCCCCn1cc(C(=O)Cc2cccc(C)c2)c2ccccc21 [JWH 251 3-methylphenyl isomer] ... 73.53
CCCCCn1cc(C(=O)c2cccc3ccccc23)c2cc(O)ccc21 ... 95.94
O=C(c1ccc2ccccc2c1)c1cn(CCN2CCOCC2)c2ccccc12 [JWH-200 2'-naphthyl isomer] ... 20.66
CCCCCn1cc(C(=O)Cc2cccc(Cl)c2)c2ccccc21 [JWH 203 3-chloro isomer (JWH-237)] ... 72.53
CCCCn1cc(C(=O)c2ccc(C)c3ccccc23)c2ccccc21 [JWH-073 4-methylnaphthyl analogue] ... 70.97
CS(=O)(=O)O.Cc1c(C(=O)c2cccc3ccccc23)c2cccc3c2n1[C@H](CN1CCOCC1)CO3 [(+)WIN 55212-2 (mesylate)] ... 91.65
O=C(c1cccc2ccccc12)c1cn(CCCCCO)c2ccccc12 [JWH-018 N-(5-hydroxypentyl) metabo lite] ... 61.67
CCCCn1cc(C(=O)c2cccc3ccccc23)c2cc(O)ccc21 ... 85.96
O=C(c1ccc(I)cc1)c1cn(CCCCCF)c2ccccc12 [AM-694 4-iodo isomer] ... 16.99
CCCCCCC(C)(C)c1ccc([C@H]2CCC[C@@H](O)C2)c(O)c1 (racemic) [CP-49,497-C7 ((+-) CP 47,497)] ... 95.90
CC(O)CCn1cc(C(=O)c2cccc3ccccc23)c2ccccc21 (stereo not shown) [JWH-073 N-(3-hydroxybutyl) metabolite] ... 72.55
CCCCCn1cc(C(=O)Cc2ccccc2OC)c2ccccc21 [JWH-250] ... 82.17
CCCCn1cc(C(=O)c2ccc(OC)cc2)c2ccccc21 ... 4.40
CCCCCn1cc(C(=O)c2cccc3ccccc23)c2ccccc21 [JWH-018] ... 82.47
Cc1ccc(C(=O)c2cn(CCCCCO)c3ccccc23)c2ccccc12 [JWH-122 N-(5-hydroxypentyl) metabo lite] ... 71.84
CCCCCn1cc(C(=O)c2cccc(OC)c2)c2ccccc21 [RCS-4 3-methoxy isomer] ... 41.84
CCCCCn1cc(C(=O)c2cccc3c(OC)cccc23)c2ccccc21 [JWH-081 5-methoxynaphthyl isomer] ... 77.74
CCCCCn1cc(C(=O)c2c(OC)ccc3ccccc23)c2ccccc21 [JWH-081 2-methoxynaphthyl isomer or (JWH-267)] ... 86.87
CCCCCCC(C)(C)c1cc(O)c2c(c1)OC(C)(C)[C@@H]1CC=C(CO)C[C@@H]21 [HU-210] ... 90.89
CCCCCn1cc(C(=O)c2c(CC)ccc3ccccc23)c2ccccc21 [JWH-210 2-ethylnaphthyl isomer] ... 89.90
CS(=O)(=O)O.Cc1c(C(=O)c2cccc3ccccc23)c2cccc3c2n1[C@@H](CN1CCOCC1)CO3 [Win 55,212-3 mesylate] ... 83.98
COc1ccc(C(=O)c2cn(CCCCCC(=O)O)c3ccccc23)cc1 [RCS-4 N-(5-carboxypentyl) metabolite] ... 4.25

###

Tested on: Antibody to Immunogen VI
Format: binding, sheep
CONDITION: Cross-reactants at 100 ng/ml; 1000ng/ml; single level of cross reactants
# note: boundary value 90% maps to Not fulfilled; %B/B0 below it maps to Fulfilled

CCCCCn1cc(C(=O)Cc2ccc(OC)cc2)c2ccccc21 [JWH-201] ... Fulfilled
O=C(O)CCCCn1cc(C(=O)c2cccc3ccccc23)c2ccccc21 [JWH-018 N-pentanoic acid metabolite] ... Fulfilled
CCCCCc1cc(O)c2c(c1)OC(C)(C)c1ccc(C)cc1-2 [Cannabinol] ... Not fulfilled
CCCCn1cc(C(=O)c2cccc3ccccc23)c2c(O)cccc21 ... Fulfilled
CCCCCn1cc(C(=O)c2ccc(CC)c3ccccc23)c2ccccc21 [JWH-210] ... Fulfilled

###

Tested on: Antibody to Immunogen VI
Assay type: binding, sheep
CONDITION: Cross-reactants at 100 ng/ml; 1000ng/ml; single level of cross reactants
Method: The wells of an enhanced binding 96 well polystyrene microtiter plate were coated with IgG fraction of antiserum raised to Immunogen VI, diluted in 10mM Tris, pH8.5 (125µl/well). The appropriate antibody coating dilution was determined using standard ELISA checkerboard techniques. […] The appropriate dilution of conjugate was also determined using standard ELISA checkerboard techniques. […] The absorbance was then measured at 450nm using a microtiter plate reader. […]
Decision: %B/B0 compared against 80%; not below it gives criterion met, below it gives criterion not met.

CCCCCn1cc(C(=O)c2cccc3c(Cl)cccc23)c2ccccc21 [JWH-398 5-chloronaphthyl isomer] ... criterion not met
O=C(c1cccc2ccccc12)c1cn(CCCCCF)c2ccccc12 [AM-2201] ... criterion not met
CCCCCCC(C)(C)c1cc(OC)c([C@@H]2C=C(CO)[C@@H]3C[C@H]2C3(C)C)c(OC)c1 [HU-308] ... criterion met
CCCCCn1cc(C(=O)c2ccc(CC)c3ccccc23)c2cc(O)ccc21 [JWH-210 5-hydroxyindole metabolite] ... criterion met
CCCC(C)(C)c1ccc2c(c1)OC(C)(C)[C@@H]1CC=C(C)C[C@@H]21 [JWH-133] ... criterion met
CCCC(C)n1cc(C(=O)c2cccc3ccccc23)c2ccccc21 (single isomer, unassigned) [JWH-018 N-(1-methylbutyl) isomer] ... criterion met
CCCCCn1c(O)c(C(=O)c2cccc3ccccc23)c2ccccc21 ... criterion met
CC(C)C(C)n1cc(C(=O)c2cccc3ccccc23)c2ccccc21 (single isomer, unassigned) [JWH 018 N-(1,2-dimethylpropyl) isomer] ... criterion met
CCCCCn1cc(C(=O)c2cccc3cc(C)ccc23)c2ccccc21 [JWH 122 6-methylnaphthyl isomer] ... criterion met
COc1ccc(C(=O)c2cn(CCCCCO)c3ccccc23)c2ccccc12 [JWH-081 N-(5-hydroxypentyl) metabolite] ... criterion not met
COc1ccc(C(=O)c2cn(CCCC(C)O)c3ccccc23)cc1 (stereo not shown) [RCS-4 N-(4-hydroxypentyl) metabolite] ... criterion not met
CCCCCn1cc(C(=O)C23CC4CC(CC(C4)C2)C3)c2ccccc21 [JWH 018 adamantyl analog] ... criterion met
CCCCCn1cc(C(=O)c2ccc3ccccc3c2)c2ccccc21 [JWH 018 2'-naphthyl isomer] ... criterion not met
CCCCCn1cc(C(=O)c2cccc3ccc(CC)cc23)c2ccccc21 [JWH-210 7-ethylnaphthyl isomer or JWH-234] ... criterion met
